# EXPERIMENTAL_PROTOCOL: Liposome association assay
# Type: binding
# SETTINGS: individual GST-mce domains, 1-80 mol % PA, densitometry; relative to high binding mce domains
METRIC_NAME: decrease of binding to PA-containing liposomes (apparent affinity)

MOLECULE	OBSERVED_RESULT
mce 5: GST-tagged individual mce domain 5 of V. parahaemolyticus MAM7 (SEQ ID NO: 9) (protein, listed as Vibrio parahaemolyticus, GST tag) GSKTLMLFASELPPISKGSPLLYRNLPVGNVSDFHLVDGGVLIKATIENRFAYLVTPQTVFWNRSGIEIDASLSGVSVKAHPLKSLIEG	~6 fold
mce 4: GST-tagged individual mce domain 4 of V. parahaemolyticus MAM7 (SEQ ID NO: 8) (protein, listed as Vibrio parahaemolyticus, GST tag) SIAIRLISDNSFGLDSGANVLYKGIVVGSIINVGLVDEKKQTKHEVFMDVLIDHEYKHLIKSNNRFYVTGSASAELTESGLSVTVP	bound equally well
mce 7: GST-tagged individual mce domain 7 of V. parahaemolyticus MAM7 (SEQ ID NO: 11) (protein, listed as Vibrio parahaemolyticus, GST tag) EGVMFTLQSEQRGSVQVGTPVLYRQMEVGQVTDVRLGEFADRVVSTIKIKPEYAYLVRQNSVFWNVSGVDVSIGITGANIKAGTIDSLVRG	~20 fold
mce 3: GST-tagged individual mce domain 3 of V. parahaemolyticus MAM7 (SEQ ID NO: 7) (protein, listed as Vibrio parahaemolyticus, GST tag) RGIAIKIALPDDNKVSSEGAPIMYRGIEIGQVTDLSLSEGREVILASAAIQPAFSDMLTTGTRFVLEEAKVSLSGVENIANLVRGNFLTIVPG	bound equally well
